experiment: Toxicity in sheep erythrocytes assessed as concentration required to achieve 10% hemolysis after 1 hr by serial dilution method; type: cell-based, Ovis aries; conditions: erythrocyte
MEASUREMENT_LABEL: HC10 (µg/mL)
Express your answer in µg/mL, writing the number without its unit.

Previously resolved entries follow.
1. CCCCCCCCCCC[C@H](O[C@@H]1OC[C@@H](O)[C@H](O)[C@H]1O)[C@H](O)[C@H](O)C[C@@H]1CC(=O)N[C@H](CO)C(=O)N[C@H]([C@H](O)c2ccc(O)cc2)C(=O)N[C@H](CCN)C(=O)NCC(=O)N[C@@H](CC(N)=O)C(=O)N[C@@H](CO)C(=O)N[C@@H](CC(N)=O)C(=O)N1 = 15
2. CCCCCCCCCCC[C@H](O[C@@H]1OC[C@@H](O)[C@H](O)[C@H]1O)[C@H](O)[C@H](O)C[C@@H]1CC(=O)N[C@H](CO)C(=O)N[C@H]([C@H](O)c2ccc(O)cc2)C(=O)N[C@H](CC(N)=O)C(=O)NCC(=O)N[C@@H](CC(N)=O)C(=O)N[C@@H](CO)C(=O)N[C@@H]([C@H](O)C(N)=O)C(=O)N1 = 10

State its HC10 for this compound: `CCCCCCCCCCC[C@H](O[C@H]1OC[C@@H](O)[C@H](O)[C@H]1O)[C@H](O)[C@H](O)C[C@@H]1CC(=O)N[C@H](CO)C(=O)N[C@H]([C@H](O)c2ccc(O)cc2)C(=O)N[C@H](CCN)C(=O)NCC(=O)N[C@@H](CC(N)=O)C(=O)N[C@@H](CO)C(=O)N[C@@H]([C@H](O)C(N)=O)C(=O)N1`
5

Give the value of HC10 reported for the following: `CCCCCCCCCCC[C@H](O[C@@H]1OC[C@@H](O)[C@H](O)[C@H]1O)[C@H](O)[C@H](O)C[C@@H]1CC(=O)N[C@H](CO)C(=O)N[C@H]([C@H](O)c2ccc(O)cc2)C(=O)N[C@H](CC(N)=O)C(=O)NCC(=O)N[C@@H](CC(N)=O)C(=O)N[C@@H](CO)C(=O)N[C@@H](CC(N)=O)C(=O)N1`
37

Annotate the compound CCCCCCCCCCC[C@H](O)[C@H](O)[C@H](O)C[C@@H]1CC(=O)N[C@H](CO)C(=O)N[C@H]([C@H](O)c2ccc(O)cc2)C(=O)N[C@H](CC(N)=O)C(=O)NCC(=O)N[C@@H](CC(N)=O)C(=O)N[C@@H](CO)C(=O)N[C@@H]([C@H](O)C(N)=O)C(=O)N1 (relative stereo) with its measured HC10.
4.5

---

MIC values for the compounds below.
system: Candida albicans; assay: Antifungal activity against Candida albicans; type: functional
Hi! Could you send only the number? It should be in µg/mL, unit omitted.

Example compounds with recorded MIC:
1) CCCCCCCCCCC[C@H](O[C@@H]1OC[C@@H](O)[C@H](O)[C@H]1O)[C@H](O)[C@H](O)C[C@@H]1CC(=O)N[C@H](CO)C(=O)N[C@H]([C@H](O)c2ccc(O)cc2)C(=O)N[C@H](CCN)C(=O)NCC(=O)N[C@@H](CC(N)=O)C(=O)N[C@@H](CO)C(=O)N[C@@H](CC(N)=O)C(=O)N1 [BURKHOLDINES 1119] = 0.4
2) CCCCCCCCCCC[C@H](O[C@@H]1OC[C@@H](O)[C@H](O)[C@H]1O)[C@H](O)[C@H](O)C[C@@H]1CC(=O)N[C@H](CO)C(=O)N[C@H]([C@H](O)c2ccc(O)cc2)C(=O)N[C@H](CC(N)=O)C(=O)NCC(=O)N[C@@H](CC(N)=O)C(=O)N[C@@H](CO)C(=O)N[C@@H](CC(N)=O)C(=O)N1 [BURKHOLDINES 1213] = 31
3) CCCCCCCCCCC[C@H](O[C@H]1OC[C@@H](O)[C@H](O)[C@H]1O)[C@H](O)[C@H](O)C[C@@H]1CC(=O)N[C@H](CO)C(=O)N[C@H]([C@H](O)c2ccc(O)cc2)C(=O)N[C@H](CCN)C(=O)NCC(=O)N[C@@H](CC(N)=O)C(=O)N[C@@H](CO)C(=O)N[C@@H]([C@H](O)C(N)=O)C(=O)N1 [BURKHOLDINE 1215] = 0.15
4) CCCCCCCCCCC[C@H](O)[C@H](O)[C@H](O)C[C@@H]1CC(=O)N[C@H](CO)C(=O)N[C@H]([C@H](O)c2ccc(O)cc2)C(=O)N[C@H](CC(N)=O)C(=O)NCC(=O)N[C@@H](CC(N)=O)C(=O)N[C@@H](CO)C(=O)N[C@@H]([C@H](O)C(N)=O)C(=O)N1 (relative stereo) = 12.5
5) CCCCCCCCCCC[C@H](O[C@@H]1OC[C@@H](O)[C@H](O)[C@H]1O)[C@H](O)[C@H](O)C[C@@H]1CC(=O)N[C@H](CO)C(=O)N[C@H]([C@H](O)c2ccc(O)cc2)C(=O)N[C@H](CC(N)=O)C(=O)NCC(=O)N[C@@H](CC(N)=O)C(=O)N[C@@H](CO)C(=O)N[C@@H]([C@H](O)C(N)=O)C(=O)N1 = 12.5

Continue with the compound presented below.
Answer with the recorded MIC for the compound listed here: C[C@@H]1[C@H](O)[C@@H](C)/C=C/C=C/C=C/C=C/C=C/C=C/C=C/[C@H](O[C@@H]2O[C@H](C)[C@@H](O)[C@H](N)[C@@H]2O)C[C@@H]2O[C@](O)(C[C@@H](O)C[C@@H](O)[C@H](O)CC[C@@H](O)C[C@@H](O)CC(=O)O[C@H]1C)C[C@H](O)[C@H]2C(=O)O [AMPHOTERICIN B]
2.5
